Data origin: PubChem BioAssay (NCI)

Test system: OVCAR-5 ovarian
Test: NCI-60 one-dose screen, 48 h
Conditions: 10 µM unless noted
Procedure: Growth inhibition of the OVCAR-5 human tumor cell line is measured as a screen for anti-cancer activity. Cells are grown in 96 well plates and exposed to the test compound for 48 hours. Compounds are tested at a single concentration, which is 10^-5 M for most compounds. The reported endpoint is percent growth (GI% or GIPRCNT), where numbers from 0 - 100% represent growth inhibition, and numbers from -100% - 0 represent cell death. For example, a value of 40 represents 60% growth inhibition. […]
About 83,000 compounds went through this panel and 20% of them were active in at least one assay; those are over-represented in the sample as a whole. The source made the active and inactive calls. How the source made its calls: active means growth percent below 10; inactive means the rest.
Write down the outcome that applies. Available outcomes: active, inactive

Solved cases (4 shown):
- compound: "O=C1c2cc3c(cc2-c2c1c1ccc(Cl)cc1c(=O)n2CCCNCCO)OCO3"
  class_assignment: "active"
- compound: "COC(=O)CC1=C(c2ccc([N+](=O)[O-])cc2)CCC1=O"
  class_assignment: "inactive"
- compound: "COc1ccc(OC)c2c1CCC1(C2)NC(=O)NC1=O (configuration not stated)"
  class_assignment: "inactive"
- compound: "Cc1sc2nc(NCCc3cccs3)[nH]c(=O)c2c1C"
  class_assignment: "inactive"

Here is the next item to consider.
-- ask Kindly provide the recorded test outcome for the following compound: "O=C(O)CCC(=O)OC[C@@H](NC(=O)C(Cl)Cl)[C@H](O)c1ccc([N+](=O)[O-])cc1"
-- reply inactive

====

Reported growth values are given for each entry in this list.
test system: ACHN renal; assay: NCI-60 one-dose screen, 48 h (100 = growth as untreated, 0 = no growth, -100 = all killed); details: 10 µM unless noted
This is part of a sample that, as a whole, favours compounds with a hit. Of some 83,000 tested, about 20% had one in any assay.
Give just the numeric value; % need not be written.

- compound_smiles: "COP(=O)(OC)C(c1ccc(O)cc1)(c1ccc(O)cc1)c1ccc(O)cc1"
  growth / %: 103

Briefly, growth measured for "CC(=O)O[C@H]1CC[C@@]2(C)C(=CC[C@@H]3[C@@H]2CC[C@]2(C)C(c4cccnc4)=CC[C@@H]32)C1" : 44.7

Reported growth of "CCSc1nc(-c2ccc(F)cc2)c(C#N)c(=O)[nH]1" : 97.1

Recorded growth (molecule "Cc1n(Cc2ccc3ccccc3c2)cc[n+]1Cc1ccc2ccccc2c1" ): 80.1

====

test system: PC-3 prostate; assay: NCI-60 one-dose screen, 48 h (100 = growth as untreated, 0 = no growth, -100 = all killed); conditions: 10 µM unless noted
The panel holds about 83,000 compounds, 20% with a hit somewhere; the sample as a whole holds those more often.
Reported values of growth for individual entries
Enter your answer as a number in %; do not include the unit.

Reference set, count: 2
- molecule: "O=C(O)C1C(c2ccccc2)c2ccccc2C(O)C1CO (configuration not stated)"
  unit_name: "%"
  growth: 91.5
- molecule: "O=C1Nc2ccc(Cl)cc2/C1=C/c1cccs1"
  unit_name: "%"
  growth: 93.4

growth reported for this molecule "CCCCCCCCCCNCCSS(=O)(=O)O" : 88.7

So for "Cc1[nH]ccc2cc3nc4ccccc4c3cc12" , the logged growth turned out to be 33.4

"COc1ccc2cc(C3=CC(=O)CCC3)ccc2c1" has a reported growth of 91.3

growth measured on OC(c1ccccc1)C(NCc1ccccc1)c1ccccc1 (configuration not stated) = 79.9

Measured growth, O=C1CSC(c2ccccc2Cl)N1c1nnc(Cn2nnc3ccccc32)o1 (configuration not stated) : 68.9
